- PROTOCOL: Cell proliferation assay (WST-1): cytotoxicity and proliferation of breast cancer cells
- Assay type: cell-based
- CONDITION_DESCRIPTION: human; up to a concentration of about 200 nM; breast cancer cells MDA-MB-231 and Hs-578T
READOUT_NAME: viability

Specify reported viability for the molecule shown: CN1C(=O)C23CC4=CC=CC(O)C4N2C(=O)C1(CO)SS3 (stereo not shown) ≥ 80%

---

- PROTOCOL: Cell proliferation assay (WST-1): cytotoxicity and proliferation of breast cancer cells
- Type: cell-based
- CONDITION_DESCRIPTION: human; up to a concentration of about 200 nM; breast cancer cells MDA-MB-231 and Hs-578T
READOUT_NAME: viability at 2 h

Specify reported viability at 2 h for the compound shown: CN1C(=O)C2(Cc3cn(C45CC67SSC(CO)(C(=O)N6C4Nc4ccccc45)N(C)C7=O)c4ccccc34)SSC1(CO)C(=O)N2C (stereo not shown) ≥ 80%

Values were extracted from patent US20250345343A1.
